Test system: COLO 205
Assay: NCI tumour cell line growth inhibition, 48 h
The source made the active and inactive calls. No stated cut-off is given here; in the data, active = GI50 up to about 1.1 µM and inactive = higher.
Thanks in advance; please answer with one of these: active, inactive

{"columns": ["COMPOUND", "SYSTEM_NAME", "DISCRETE_LABEL"],
 "data": [
  ["OCCOc1ccccc2cccc1-2", "COLO 205", "inactive"],
  ["N=C(N)NC(=N)Nc1ccccc1.Sc1nc2ccccc2s1", "COLO 205", "inactive"],
  ["COC1=CC(=O)C2=C(C1=O)[C@H]1CC[C@]3(C)[C@@H](O)CC[C@H]3[C@@H]1CC2", "COLO 205", "inactive"],
  ["CCCNC(=O)c1cc2ccccc2cc1C(=O)OC", "COLO 205", "inactive"],
  ["O=C1NC2c3c(I)sc(I)c3/C(=N\\O)C2O1 (centres undefined)", "COLO 205", "inactive"],
  ["COc1cc2c(c(OC)c1OC)-c1ccc(SC)c(=O)cc1C(CC(=O)Oc1ccc(F)cc1)C2 (centres undefined)", "COLO 205", "active"],
  ["CN(C)CCC(C(=O)C(C)(C)C)c1ccccn1 (centres undefined)", "COLO 205", "inactive"],
  ["CC1=NOC(C)(O)/C1=N/O (centres undefined)", "COLO 205", "inactive"],
  ["COC(=O)c1n[nH]c(C)c1/N=N/N(C)CCC#N", "COLO 205", "inactive"],
  ["N#Cc1ccccc1NC(=O)C(O)C(O)C(O)C(O)C=O (centres undefined)", "COLO 205", "inactive"]
]}

Ask: State the result this test recorded for CC1(c2ccc(Cl)s2)CC(c2ccc(Cl)s2)=C(C#N)C(=C(C#N)C#N)N1 (centres undefined) .
Result: inactive

Ask: State the result this test recorded for O=C(O)C(CCc1ccccn1)c1ccccc1 (centres undefined) .
Result: inactive

Ask: State the result this test recorded for C/C(=C1/N=C(c2cc([N+](=O)[O-])ccc2Cl)N(C2=CC=C(Cl)CC2)C1=O)c1cc2ccccc2oc1=O .
Result: inactive

Ask: State the result this test recorded for CC(C)c1cc2c(c(O)c1O)[C@@]1(C(=O)O)CCCC(C)(C)[C@@H]1CC2 .
Result: inactive

Ask: State the result this test recorded for C/C(=N\Nc1nc2cc(C(F)(F)F)ccc2s1)c1ccccn1 .
Result: active

Ask: State the result this test recorded for O=C(O)CCCc1ccc2c(c1)C(C(=O)O)CC2 (centres undefined) .
Result: inactive

Ask: State the result this test recorded for Cc1c(-c2ccccc2)[nH]c2ccc(Cl)cc2c1=O .
Result: inactive

Ask: State the result this test recorded for O=C(CCN1CC2CCC(CC2)C1)c1cccs1 .
Result: inactive

Ask: State the result this test recorded for CC(C)Cn1cnc2c(Sc3c([N+](=O)[O-])ncn3C)nc(N)nc21 .
Result: inactive

Ask: State the result this test recorded for O/N=C1/C(=C/c2ccc(F)cc2)CCCC1C(NO)c1ccc(F)cc1 (centres undefined) .
Result: inactive

Ask: State the result this test recorded for O=C(Nc1nc(C23CC4CC(CC(C4)C2)C3)cs1)c1cc2ccc(O)cc2oc1=O .
Result: inactive

Ask: State the result this test recorded for c1ccc(COc2ccc(CC3SCCCS3)cc2)cc1 .
Result: inactive

Ask: State the result this test recorded for CN(C)CCNC(=O)c1cc([N+](=O)[O-])cc2c1Oc1ccccc1O2 .
Result: inactive

Ask: State the result this test recorded for CCNCCC1(CC)C(=O)NC(=O)NC1=O .
Result: inactive

Ask: State the result this test recorded for CCOC(=O)CC1CCN(C(=O)c2ccccc2)C2Cc3c([nH]c4ccccc34)C12C[N+](=O)[O-] (centres undefined) .
Result: inactive

Ask: State the result this test recorded for Cn1sc2ccccc2c1=S .
Result: inactive

Ask: State the result this test recorded for COC(=O)C1=C(O)C(C(=O)OC)[C@]2(O)[C@H](C(=O)OC)[C@H]1C[C@@H](c1ccc(Cl)cc1Cl)[C@H]2C(=O)OC (some centres undefined) .
Result: inactive

Ask: State the result this test recorded for COC(=O)CN(CC(=O)NCCCBr)C1CCCCC1N(CC(=O)OC)CC(=O)OC (centres undefined) .
Result: inactive

Ask: State the result this test recorded for O=c1[nH]c(=O)n(C2OC(CO)C(O)C2O)cc1/N=N/NCc1ccccc1 (centres undefined) .
Result: inactive
